Test system: Aspergillus fumigatus 1008
Assay: MIC determination (NCCLS M27A/M38P broth dilution)
Type: cell-based
Conditions: Aspergillus fumigatus 1008; RPMI 1640, MOPS pH 7
Experimental readout: MIC (µg/mL)
# number only, unit µg/mL dropped from output

Query string: # MIC lookup, item `C[C@@H](n1ccn(-c2ccc(OCC(F)(F)C(F)F)cc2)c1=S)[C@](O)(Cn1cncn1)c1ccc(F)cc1F`
Result string: 0.125

Query string: One more compound: `C[C@@H](n1ccn(-c2ccc(-n3cnnn3)cc2)c1=S)[C@](O)(Cn1cncn1)c1ccc(F)cc1F`
Result string: 0.25

Query string: What about `C[C@@H](n1ccn(-c2ccc(-n3ncnn3)cc2)c1=S)[C@](O)(Cn1cncn1)c1ccc(F)cc1F` ?
Result string: 0.125

Query string: Repeat for the following compound: `C[C@@H]1[C@H](O)[C@@H](C)/C=C/C=C/C=C/C=C/C=C/C=C/C=C/[C@H](O[C@@H]2O[C@H](C)[C@@H](O)[C@H](N)[C@@H]2O)C[C@@H]2O[C@](O)(C[C@@H](O)C[C@@H](O)[C@H](O)CC[C@@H](O)C[C@@H](O)CC(=O)O[C@H]1C)C[C@H](O)[C@H]2C(=O)O`
Result string: 0.25

* * *

Tested on: Paecilomyces variotti 22319(QC)
Assay: MIC determination (NCCLS M27A/M38P broth dilution)
Format: cell-based
Conditions: Paecilomyces variotti 22319(QC); RPMI 1640, MOPS pH 7
Experimental readout: MIC (µg/mL)
Supply the numeric figure in µg/mL, leaving out any unit text.

Query string: Consider the compound shown here: `C[C@@H](n1ccn(-c2ccc(-n3cnnn3)cc2)c1=S)[C@](O)(Cn1cncn1)c1ccc(F)cc1F` What is its recorded MIC?
Result string: 0.016

Query string: Queued: `C[C@@H]1[C@H](O)[C@@H](C)/C=C/C=C/C=C/C=C/C=C/C=C/C=C/[C@H](O[C@@H]2O[C@H](C)[C@@H](O)[C@H](N)[C@@H]2O)C[C@@H]2O[C@](O)(C[C@@H](O)C[C@@H](O)[C@H](O)CC[C@@H](O)C[C@@H](O)CC(=O)O[C@H]1C)C[C@H](O)[C@H]2C(=O)O`
Result string: 0.25

Numbers sourced from patent US20050131041A1.
